Reported OD490 values are given for each entry in this list.
biological target: T1, M1-2; assay: ELISA, 1 ug/ml
T1 construct: also called PD1 mutant M1-2
Would you mind answering with just the numeric figure?

Solved entries (count: 3):
INSERT INTO results (binder, reported_measurement) VALUES
  ('PD1-52E8 (antibody, V domains shown, scFv-phage in the screening ELISA; whole IgG in the other assays) VH: QVQLVQSGGNLVQPGRSLRLSCAASGFTFDDYAMHWVRQAPGKGLEWVSGISWNSGTPGYADSVQGRFTISRDNAKNSLYLQMNSLRAEDTAVYYCARGHNYLDSSYYDYWGQGTLVTVSS VL: SYELTQPLSLSVAPGQTARITCSGDALSKEYSYWYQQKPGQAPVLVMYKDSERPSGIPERFSGSSSGTTVTLTISGVQAEDEADYYCQSVDSSDTSVVFGGGTKLTVL', 3.6),
  ('PD1-45D6 (antibody, V domains shown, scFv-phage in the screening ELISA; whole IgG in the other assays) VH: QVQLVESGGGVVQPGRSLRLSCAASGFTFSSYAMHWVRQVPGKGLEWVAVISYDGNDKYYADSVKGRFTISRDNSKNTLYLQMNSLRAEDTAVYYCVPTTFEYWGQGSQVTVSS VL: DIVMTQTPLSLPVTPGEAASISCRSSQSLLDSDDGKTYLDWYLQKPGQSPQLLIYTLSYRASGVPDRFSGSGSGTEFNLRISRVEAEDVGIYYCMQRVEFPFTFGQGTKLDIK', 3.9),
  ('PD1-41C9 (antibody, V domains shown, scFv-phage in the screening ELISA; whole IgG in the other assays) VH: QMQLVESGGGVVQPGRSLRLSCAASGFTFSSYAMHWVRQAPGKGLEWVAVISYDGSNKYYADSVKGRFTISRDNSKNTLYLQMNRLRSEDTAVYYCTTTTFDSWGQGTLITVSS VL: DIVMTQTPLSLPVTPGEAASISCRSSQSLLDSEDGNTYLDWYLQKPGQSPQLLIYTLSHRASGVPDRFSGSGSGTDFTLKISRVAAEDVGLYYCLQRMGFPYTFGQGTKLDIK', 3.2);

Now look at this one.
According to the records, this binder PD1-49A2 (antibody, V domains shown, scFv-phage in the screening ELISA; whole IgG in the other assays; also called Parent 49A2) VH: QVQLVESGGGVVQPGRSLRLSCAASGFTFSSYAMHWVRQAPGKGLEWVAVISYDGSNKYYADSVKGRFTISRDNPKNTLYLQMNSLRAEDTAVYYCTTTTFDSWGRGTLVTVSS VL: DIVMTQSPLSLPVTPGEPASISCRSSQSLFDSDDGNTYLDWYLQKPGQSPQLLIYTLSHRASGVPDRFSGSGSGTDFTLKISRVEAEDVGIYYCLQRMGFPYTFGQGTKVEIK displays OD490 of 3.8
